- Tested on: noninfected PBM cells
- procedure.summary: Toxic effect on noninfected cells (formazan formation), PBM
- condition.parameters: at least 50% inhibition of formazan formation, 5 days
- Protocol: The toxic effect on the noninfected cells is assessed by calorimetric reaction based on the capacity of live cells to reduce 3-(4,5-dimethylthiozol-2-yl)-2,5-diphenyltetrazolium bromide to formazan after incubating for 5 days in the presence of various concentrations of the compounds.
measured.endpoint: CD50 (M)
Give bare numbers, in M.

Cc1cn([C@H]2C[C@H](N=[N+]=[N-])[C@@H](CO)O2)c(=O)[nH]c1=O [AZT, reference compound]; 7e-05

Kindly review the next compound as well.
Q: Which CD50 is reported with noninfected PBM cells for this entry: Nc1ccn([C@H]2CC[C@@H](CO)O2)c(=O)n1 [DDC, reference compound] ?
A: 7e-05

All values here come from patent US7439351B2.
